Molecular target: Histone deacetylase 2 (Homo sapiens)
Sequence (Q92769 whole entry): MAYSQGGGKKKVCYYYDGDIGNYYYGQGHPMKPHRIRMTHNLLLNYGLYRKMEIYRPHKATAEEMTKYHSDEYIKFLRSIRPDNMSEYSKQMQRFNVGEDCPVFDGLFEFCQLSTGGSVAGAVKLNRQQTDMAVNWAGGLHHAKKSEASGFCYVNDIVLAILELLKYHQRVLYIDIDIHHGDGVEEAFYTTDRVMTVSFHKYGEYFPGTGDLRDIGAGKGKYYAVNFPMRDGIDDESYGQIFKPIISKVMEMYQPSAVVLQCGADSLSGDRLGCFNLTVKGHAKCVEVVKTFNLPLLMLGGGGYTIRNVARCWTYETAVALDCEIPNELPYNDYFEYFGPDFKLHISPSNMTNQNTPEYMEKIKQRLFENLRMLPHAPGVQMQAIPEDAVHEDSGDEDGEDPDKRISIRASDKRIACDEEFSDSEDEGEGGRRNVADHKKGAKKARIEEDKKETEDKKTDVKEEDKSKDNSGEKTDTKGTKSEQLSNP
Endpoint: IC50

| Smiles Notation | Assayed Target | Result |
| --- | --- | --- |
| CN(C)c1cccc2c(S(=O)(=O)N[C@H](C(=O)Nc3ccc(C(=O)NO)cc3)c3ccccc3)cccc12 | Histone deacetylase 2 (Homo sapiens) | 0.107 µM |

* * *

Biological target: Histone deacetylase 3 (Homo sapiens, UniProt O15379)
Sequence (O15379 whole entry): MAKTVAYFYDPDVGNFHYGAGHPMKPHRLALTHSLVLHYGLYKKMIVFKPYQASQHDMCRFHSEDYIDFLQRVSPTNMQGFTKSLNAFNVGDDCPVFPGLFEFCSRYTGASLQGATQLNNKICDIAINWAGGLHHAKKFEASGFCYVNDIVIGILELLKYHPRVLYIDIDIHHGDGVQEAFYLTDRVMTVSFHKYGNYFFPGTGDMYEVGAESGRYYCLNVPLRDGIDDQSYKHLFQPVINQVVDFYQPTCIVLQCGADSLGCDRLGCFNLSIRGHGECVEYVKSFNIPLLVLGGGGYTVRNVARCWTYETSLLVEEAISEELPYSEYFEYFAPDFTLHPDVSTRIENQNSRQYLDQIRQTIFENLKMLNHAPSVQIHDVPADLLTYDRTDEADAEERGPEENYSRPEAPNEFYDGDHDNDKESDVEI
Test: Inhibition of human HDAC3 using fluorogenic as substrate measured after 30 mins by fluorescence based analysis
pIC50: −log10 of the molar value.

| Smiles Notation | pIC50 |
| --- | --- |
| O=C(NO)c1ccc(NC(=O)[C@@H](NS(=O)(=O)c2cccc3ccccc23)c2ccccc2)cc1 | 7.64 |
